Reported Kd values follow for various binders
# Assayed Target: T1, recombinant human DKK1 (human, UniProt O94907 32-266)
# T1 construct: also called Dickkopf-1; rhDKK1
# T1 sequence: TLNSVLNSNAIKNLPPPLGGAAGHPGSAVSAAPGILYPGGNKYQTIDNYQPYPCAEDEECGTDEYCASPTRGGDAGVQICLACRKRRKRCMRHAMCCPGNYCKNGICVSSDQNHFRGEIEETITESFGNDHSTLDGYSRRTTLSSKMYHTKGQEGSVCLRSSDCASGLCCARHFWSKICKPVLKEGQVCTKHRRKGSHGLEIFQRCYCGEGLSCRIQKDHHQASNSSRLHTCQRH
# Experimental Details: SPR (Biacore), DKK1 immobilised on CM5 chip, Fab as analyte
Lab book: enter the figure in nM, no units written.

Check out these entries, answers already filled in.
Binder	Numeric Result
MOR04456 (Fab, V domains shown, Fab with C-terminal FLAG and 6xHis tags) VH: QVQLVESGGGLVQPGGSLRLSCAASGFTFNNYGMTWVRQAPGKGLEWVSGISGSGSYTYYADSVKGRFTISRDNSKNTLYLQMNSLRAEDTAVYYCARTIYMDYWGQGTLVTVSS VL: DIVLTQSPATLSLSPGERATLSCRASQNLFSPYLAWYQQKPGQAPRLLIYGASNRATGVPARFSGSGSGTDFTLTISSLEPEDFATYYCQQYGDEPITFGQGTKVEIKR	7.9
MOR04454 (Fab, V domains shown, Fab with C-terminal FLAG and 6xHis tags) VH: QVQLVESGGGLVQPGGSLRLSCAASGFTFSNYGLHWVRQAPGKGLEWVSSISYYGSSTYYADSVKGRFTISRDNSKNTLYLQMNSLRAEDTAVYYCARDGSHMDKPPGYVFAFWGQGTLVTVSS VL: DIQMTQSPSSLSASVGDRVTITCRASQGIKNYLNWYQQKPGKAPKLLIGAASSLQSGVPSRFSGSGSGTDFTLTISSLQPEDFATYYCLQYYGMPPTFGQGTKVEIKR	3.2
MOR04470 (Fab, V domains shown, Fab with C-terminal FLAG and 6xHis tags) VH: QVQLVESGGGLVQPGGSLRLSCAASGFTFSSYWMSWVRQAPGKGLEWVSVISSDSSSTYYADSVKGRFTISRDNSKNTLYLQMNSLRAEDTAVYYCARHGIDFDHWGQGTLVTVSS VL: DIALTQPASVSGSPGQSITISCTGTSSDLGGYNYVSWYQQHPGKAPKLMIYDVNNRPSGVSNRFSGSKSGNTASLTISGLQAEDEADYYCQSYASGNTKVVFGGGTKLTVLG	3.2
MOR04455 (Fab, V domains shown, Fab with C-terminal FLAG and 6xHis tags) VH: QVQLVESGGGLVQPGGSLRLSCAASGFTFSSYGMSWVRQAPGKGLEWVSGISGSGSYTYYADSVKGRFTISRDNSKNTLYLQMNSLRAEDTAVYYCARHYMDHWGQGTLVTVSS VL: DIQMTQSPSSLSASVGDRVTITCRASQDISNYLHWYQQKPGKAPKLLIYGASNLQSGVPSRFSGSGSGTDFTLTISSLQPEDFAVYYCQQYDSIPMTFGQGTKVEIKR	1.6

In one line, give reported Kd of the entry MOR04461 (Fab, V domains shown, Fab with C-terminal FLAG and 6xHis tags) VH: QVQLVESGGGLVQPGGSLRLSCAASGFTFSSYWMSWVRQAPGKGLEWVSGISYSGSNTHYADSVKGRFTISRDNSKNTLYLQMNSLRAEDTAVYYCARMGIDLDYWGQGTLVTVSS VL: DIALTQPASVSGSPGQSITISCTGTSSDVGGFNYVSWYQQHPGKAPKLMIHDGSNRPSGVSNRFSGSKSGNTASLTISGLQAEDEADYYCSTWDMTVDFVFGGGTKLTVLG .
7.6

In one line, give reported Kd of the entry MOR04516 (Fab, V domains shown, Fab with C-terminal FLAG and 6xHis tags; also called MOR4516) VH: QVQLVQSGAEVKKPGESLKISCKGSGYSFTNYYIGWVRQMPGKGLEWMGIIYPTDSYTNYSPSFQGQVTISADKSISTAYLQWSSLKASDTAMYYCARGIPFRMRGFDYWGQGTLVTVSS VL: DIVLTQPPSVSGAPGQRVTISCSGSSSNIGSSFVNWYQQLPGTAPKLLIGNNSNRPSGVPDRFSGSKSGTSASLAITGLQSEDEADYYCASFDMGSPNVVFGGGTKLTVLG .
2.6
